Test system: P. falciparum Dd2 Cytb A122D
method_summary: SYBR Green ABS proliferation assay, NCGC00473217 selected clone F12
Type: cell-based, Plasmodium falciparum
condition: Plasmodium falciparum, DD2, NCGC00473217 selected clone; read-out: AC50 Log[M] ± SD, Cytb A122D (converted)
readout_name: AC50 (M)
Numbers only, in M.

Please review the entries below; each comes with its answer.
molecule: CC(=O)Nc1ccc(CN2CCc3nc(C(C)C)nc(-c4ccc(Cl)cc4)c3CC2)cc1
recorded_number: 2.09e-06
--
molecule: O=C1C(O)=C([C@H]2CC[C@H](c3ccc(Cl)cc3)CC2)C(=O)c2ccccc21 [Atovaquone, atovaquone, reference compound]
recorded_number: 5.5e-10

Batch request: AC50 per item, same order as input.
1. CCCN1C(CC2CCC2)=NS(=O)(=O)c2cc(NC(=O)c3cccs3)ccc21
2. CCCN1C(CC(C)C)=NS(=O)(=O)c2cc(NC(=O)C3CCCC3)ccc21

1. 1.35e-06
2. 5.25e-06
